- assayMethodText: Stability of NTI164 oil formulation at room temperature (UPLC)
- experimentalSetup: NTI164 oil, room temperature, Day 0
The following compounds are listed with their measured Cannabinoid content of NTI164, Day 0 values.
Return type: number; implicit unit mg/mL.

So for CCCCCc1cc(O)c(C/C=C(\C)CCC=C(C)C)c(O)c1C(=O)O , the logged Cannabinoid content of NTI164, Day 0 turned out to be 1.07

So for CCCCCc1cc(O)c(C/C=C(\C)CCC=C(C)C)c(O)c1 , the logged Cannabinoid content of NTI164, Day 0 turned out to be 5.21

So for CCCCCc1cc2c(c(O)c1C(=O)O)[C@@H]1C=C(C)CC[C@H]1C(C)(C)O2 [(Tetrahydrocannabinolic acid) (D9-THCA), Delta-9-tetrahydrocannabinolic acid] , the logged Cannabinoid content of NTI164, Day 0 turned out to be 0.66

So for CCCCCc1cc(O)c2c(c1)OC(C)(C)c1ccc(C)cc1-2 , the logged Cannabinoid content of NTI164, Day 0 turned out to be 2.32

###

- assayMethodText: Stability of NTI164 oil formulation at room temperature (UPLC)
- experimentalSetup: NTI164 oil, room temperature, Day 7
The following compounds are listed with their measured Cannabinoid content of NTI164, Day 7 values.
Return type: number; implicit unit mg/mL.

CCCCCc1cc(O)c2c(c1)OC(C)(CCC=C(C)C)C=C2 (stereo not shown) : 1.34
C=C(C)[C@@H]1CCC(C)=C[C@H]1c1c(O)cc(CCCCC)cc1O : 0.53

Okay, now this compound:
So for CCCCCc1cc2c(c(O)c1C(=O)O)[C@@H]1C=C(C)CC[C@H]1C(C)(C)O2 [(Tetrahydrocannabinolic acid) (D9-THCA), Delta-9-tetrahydrocannabinolic acid] , the logged Cannabinoid content of NTI164, Day 7 turned out to be 0.64

###

- assayMethodText: Stability of NTI164 oil formulation at room temperature (UPLC)
- experimentalSetup: NTI164 oil, room temperature, Day 14
The following compounds are listed with their measured Cannabinoid content of NTI164, Day 14 values.
Return type: number; implicit unit mg/mL.

CCCCCc1cc(O)c(C/C=C(\C)CCC=C(C)C)c(O)c1C(=O)O : 1.19
CCCCCc1cc(O)c(C/C=C(\C)CCC=C(C)C)c(O)c1 : 5.1
C=C(C)[C@@H]1CCC(C)=C[C@H]1c1c(O)cc(CCCCC)c(C(=O)O)c1O : 48.09

Okay, now this compound:
So for CCCCCc1cc(O)c2c(c1)OC(C)(CCC=C(C)C)C=C2 (stereo not drawn) , the logged Cannabinoid content of NTI164, Day 14 turned out to be 1.22

###

- assayMethodText: Stability of NTI164 oil formulation at room temperature (UPLC)
- experimentalSetup: NTI164 oil, room temperature, Week 5
resultType: Cannabinoid content of NTI164, Week 5 (mg/mL)
Return type: number; implicit unit mg/mL.

Here is how some compounds turned out for Cannabinoid content of NTI164, Week 5.
CCCCCc1cc(O)c(C/C=C(\C)CCC=C(C)C)c(O)c1 : 5.30
CCCCCc1cc(O)c2c(c1)OC(C)(C)c1ccc(C)cc1-2 : 2.22
CCCCCc1cc(O)c(C/C=C(\C)CCC=C(C)C)c(O)c1C(=O)O : 1.08

So for CCCCCc1cc2c(c(O)c1C(=O)O)[C@@H]1C=C(C)CC[C@H]1C(C)(C)O2 [(Tetrahydrocannabinolic acid) (D9-THCA), Delta-9-tetrahydrocannabinolic acid] , the logged Cannabinoid content of NTI164, Week 5 turned out to be 0.79

So for C=C(C)[C@@H]1CCC(C)=C[C@H]1c1c(O)cc(CCCCC)c(C(=O)O)c1O , the logged Cannabinoid content of NTI164, Week 5 turned out to be 48.35

Reference for the values: patent US20260335341A1
